Provenance of the data: the supplement of paper PMC10567573

B1: P2RY14 (parent)
chain: KKIFKSHLKSSRNSTSVKKKSSRN

# Variants of: B1
# Protocol details: protein stability index of a GFP-peptide fusion (GPS, HEK-293T) (PSI 1-6); higher = more stable;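 also: lentivirally expressed fusions sorted by FACS into six bins by GFP to DsRed ratio, PSI derived from sequencing read proportions per bin multiplied by bin number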
# Study conditions: c terminus: a fixed tail appended
Catalogue of protein stability index values
Result type: protein stability index

| Alteration | Result value |
| --- | --- |
| K5T | 4.06 |
| I3F | 3.91 |
| S22A | 4.01 |
| N13S | 4.89 |
| L8V | 4.14 |
| S6T | 4.11 |
| K9N | 4.5 |
| N13P | 3.45 |
| S21Y | 3.38 |
| I3V | 4.04 |
| S22Y | 3.56 |
| K19F | 3.13 |
| S6D | 4.62 |
